tested on: UniProt P23458
Sequence (P23458 850-1154): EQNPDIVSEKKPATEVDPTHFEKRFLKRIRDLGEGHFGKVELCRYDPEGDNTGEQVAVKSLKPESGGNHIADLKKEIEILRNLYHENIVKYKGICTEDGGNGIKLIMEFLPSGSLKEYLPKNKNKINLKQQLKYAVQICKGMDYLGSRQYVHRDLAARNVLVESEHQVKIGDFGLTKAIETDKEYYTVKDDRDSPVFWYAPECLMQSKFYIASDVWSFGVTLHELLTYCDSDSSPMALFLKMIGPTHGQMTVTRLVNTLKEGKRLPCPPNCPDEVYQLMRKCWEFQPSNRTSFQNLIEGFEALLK
pIC50: −log10 of the molar value.
Rule: pIC50 under 8 gives Condition not met, otherwise Condition met.

Item COc1cccc(F)c1CNc1nc(Nc2cnn(C)c2)ncc1C(N)=O with pIC50 of 8 or above?
Condition met

Check the entry COc1cccc(F)c1CNc1nc(Nc2cnn(C(C)C)c2)ncc1C(N)=O : does pIC50 equal or exceed 8?
Condition met

Hi, just wondering whether CC(C)=CCCCNc1nc(Nc2cnn(C(C)(C)C)c2)ncc1C(N)=O shows pIC50 of 8 or higher.
Condition not met

Test whether the compound C=CCCNc1nc(Nc2cnn(C3CCOCC3)c2)ncc1C(N)=O records pIC50 of 8 or higher.
Condition not met

# check: pIC50 of COCCn1cc(Nc2ncc(C(N)=O)c(NCc3c(F)cccc3F)n2)cn1 is greater than or equal to 8
Condition not met

Reported pIC50 at or above 8? CC(C)n1cc(Nc2ncc(C(N)=O)c(NCc3c(F)cccc3F)n2)cn1
Condition not met

Given the entry C=C(C)CNc1nc(Nc2cnn(C3CCOCC3)c2)ncc1C(N)=O , answer whether its pIC50 meets or surpasses 8.
Condition not met

In plain terms: is recorded pIC50 at least 8 for CC(C)=CCNc1nc(Nc2cnn(C(C)(C)C)c2)ncc1C(N)=O ?
Condition not met

Given COc1ccccc1CNc1nc(Nc2cnn(C)c2)ncc1C(N)=O , state whether its pIC50 is at least 8.
Condition met

Dear colleague, could you confirm whether Cn1cc(Nc2ncc(C(N)=O)c(NCCCCCO)n2)cn1 has pIC50 at or above 8?
Condition not met

# bool: pIC50 of CC(=O)N1CCC(CCNc2nc(Nc3cnn(C)c3)ncc2C(N)=O)CC1 >= 8
Condition not met

Could you verify whether the entry NC(=O)c1cnc(Nc2cnn(C3CCC3)c2)nc1NCc1c(F)cccc1F shows pIC50 of no less than 8?
Condition not met

Hi, just wondering whether Cc1cccc(C)c1CNc1nc(Nc2cnn(CCO)c2)ncc1C(N)=O shows pIC50 of 8 or higher.
Condition not met

Determine whether measured pIC50 meets or exceeds 8 for Cn1cc(Nc2ncc(C(N)=O)c(NCc3c(Cl)cccc3Cl)n2)cn1
Condition not met

Dear colleague, could you confirm whether NC(=O)c1cnc(Nc2cnn(CC3CCCO3)c2)nc1NCc1c(F)cccc1F (stereo not shown) has pIC50 at or above 8?
Condition not met

Is pIC50 at least 8? Consider CC(C)C/C=C/CNc1nc(Nc2cnn(C(C)(C)C)c2)ncc1C(N)=O
Condition not met

Is the recorded value of pIC50 equal to or greater than 8 for this compound? Cn1cc(Nc2ncc(C(N)=O)c(NCc3ccccc3)n2)cn1
Condition not met

pIC50 >= 8 for CCn1cc(Nc2ncc(C(N)=O)c(NCc3c(F)cccc3OC)n2)cn1 ?
Condition met

Determine whether measured pIC50 meets or exceeds 8 for CC(C)(O)Cn1cc(Nc2ncc(C(N)=O)c(NCc3c(F)cccc3F)n2)cn1
Condition not met
